Values were extracted from patent US20250250357A1.

Measured OD450 at 0.1 nM values are reported for all entries that follow.
target: T1, human MSLN-R3-3 polypeptide (human); test: ELISA, coated MSLN-R3-3;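 note: chimeric antibodies in serial dilution bound to plate-coated antigen for 2 h at 37 °C, with a negative control antibody alongside, and TMB colour development stopped with HCl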
T1 construct: also called human MSLN-R3-3 protein; hMSLN-R3-3
Answer with a number only, understood to be in OD450.

- S009-F1.59.1 (antibody, human IgG1, kappa, V domains shown, Human-murine chimeric antibody, human IgG1/kappa constant regions) VH: EVKLEGSGGGLVQPGGSMMLSCVATGFTFSSYWMNWVRQSPDRGLEWVAEIRLKSNGFAAFYAESVKGRFTISRDDSKSSVYLQMNNLRTEDTGIYYCTYFVHWGQGILVTVSE VL: DIVLTQSPTSLAVSLGQRATISCRTSESVEYFGTILIQWYQQKPGQPPKLLIFGASNVESGVPARFSGSGSGTDFSLNIHPVEEEDIAMYFCQQNRKVPYTFGGGTTLELKR: 0.06
- S009-F1.25.10 (antibody, human IgG1, kappa, V domains shown, Human-murine chimeric antibody, human IgG1/kappa constant regions) VH: EVQLQQSGPELVKPGASLKISCKASGYSFTDYTMNWVKQSHGKNLEWIGLFNPYNGGISYNQKFKGKATLTVDKSSNTAYMELLSLTSDDSAVYFCARDGRGGFYAMDYWGQGTSVTVSS VL: DIQMTQTTSSLSASLGDRVTISCRASQDISIYLNWYQQKPDGPVKLLIYYTSRLHSGVPSRFSGSGSGTDFSLTISNLEQEDIATYFCQQGYTLPPWTFGGGTKLEIKR: 1.82
- S009-F1.35.24 (antibody, human IgG1, kappa, V domains shown, Human-murine chimeric antibody, human IgG1/kappa constant regions) VH: EVQLQQSEPELVKPGASVRISCKASGYSFTDYYMHWVKQSPENRLEWIGEINPSTGGTSYNPKFKDKATLTVDKSSSTAYMQLKSLTSEESAVYYCTRYHYYGSSSYVMDYWGQGTSVTVSS VL: QIVLTQSPAILSASPGERVTMTCSASSSVYHMHWFQQKSGTSPKRWVYDTSKLASGVPARFSGSGSGTSYSLTISSMEAEDAATYYCQHWRTNPLTFGAGTKLELKR: 0.08

Entry S009-F1.56.1 (antibody, human IgG1, kappa, V domains shown, Human-murine chimeric antibody, human IgG1/kappa constant regions) VH: EVQLQQSGAEVVKPGASVKLSCTASGFNIRHTYMHWVKQRPEQGLEWIGRIDPANGNTEYDPKFQGKATITADTSSNTAYLQLSSLTSEDTAVYYCARDGWYIDVWGAGTTVTVSS VL: DIVMSQSPSSLAVSVGEKVTMSCKSSQSLLYSNNQKNYLAWYQQKPGQSPKLLIYWASTRESGVPDRFTGSGSGTDFTLTISSVKAEDLAVYYCQRYYSYPWTFGGGTKLEIKR ; OD450 at 0.1 nM = 0.06
